Provenance of the data: patent US20250171462A1

target_of_assay: full-length SARM1 (FL-SARM1) (Homo sapiens, UniProt Q6SZW1)
Sequence (Q6SZW1 28-724): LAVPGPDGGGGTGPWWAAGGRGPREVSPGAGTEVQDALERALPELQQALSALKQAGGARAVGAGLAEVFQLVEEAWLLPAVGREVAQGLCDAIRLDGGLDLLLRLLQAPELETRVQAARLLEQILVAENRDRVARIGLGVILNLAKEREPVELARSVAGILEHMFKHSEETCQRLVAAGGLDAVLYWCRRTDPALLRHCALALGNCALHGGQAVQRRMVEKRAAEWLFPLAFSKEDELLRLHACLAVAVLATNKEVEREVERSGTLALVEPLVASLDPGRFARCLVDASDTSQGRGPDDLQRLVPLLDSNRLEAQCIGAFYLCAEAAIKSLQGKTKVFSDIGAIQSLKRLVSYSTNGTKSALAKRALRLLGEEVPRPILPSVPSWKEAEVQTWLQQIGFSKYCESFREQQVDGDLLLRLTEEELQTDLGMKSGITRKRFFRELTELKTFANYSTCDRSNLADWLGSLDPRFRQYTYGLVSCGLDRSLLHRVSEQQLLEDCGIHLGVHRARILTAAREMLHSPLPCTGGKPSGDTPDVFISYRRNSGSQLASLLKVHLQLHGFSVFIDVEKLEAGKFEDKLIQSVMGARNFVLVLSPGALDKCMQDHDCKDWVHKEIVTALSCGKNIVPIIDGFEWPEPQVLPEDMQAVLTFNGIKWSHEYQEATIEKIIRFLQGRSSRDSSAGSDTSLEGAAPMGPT
experimental_details: FL-SARM1 cellular lysate assay (NAD/NADH-Glo detection of remaining NAD+, NMN-activated)
assay_conditions: Activity (μM) (IC50), 11 point curve
Record form. Attribute: IC50. Fill in for each entry.
Express it in µM; write the number only.

Sure, the documented IC50 for Cc1ccc(NC(=O)[C@H]2CC[C@@H](C3CC3)N2c2ccccn2)cc1-c1ncc(F)cn1 (racemic) [Example 273] is 1.9

GET /value?item= Cc1ccc(NC(=O)N2C3CC2CN(c2ncccn2)C3)cc1-c1ccccn1 [Example 72] &field=IC50 returns 1.2

Data point: CCc1ccc(NC(=O)N2C3CCCC2C3)cc1-c1ccccn1 [Example 30] ; IC50 = 0.2

Notebook: Cc1ccc(NC(=O)C2CCC(C)CCN2c2ccccn2)cc1-c1ncccn1 (mixture of isomers) [Example 259] , IC50 read as 5.8
